Cited source: ChEMBL document CHEMBL1125352

Test system: B16
Assay: Cytotoxicity against B16 melanoma cell line.40% inhibition at 1 uM
Format: functional
Details: Mus musculus, read-out: ED50 (the source's name)
pEC50: −log10 of the molar value.
measured_endpoint: pEC50

*Q* For CC(=O)O[C@H]1C(=O)[C@@]2(C)[C@H]([C@H](OC(=O)c3ccccc3)[C@]3(O)C[C@H](O)C(C)=C1C3(C)C)[C@]1(OC(C)=O)CO[C@@H]1C[C@@H]2O , write its pEC50.
*A* < 6.00

###

Experiment: Ratio of ED50 of taxol to ED50 from tubulin binding assay
Format: functional
Exercise: for every item that follows, state its recorded Ratio.

*Q* For CC(=O)O[C@H]1C(=O)[C@@]2(C)[C@H]([C@H](OC(=O)c3ccccc3)[C@]3(O)C[C@H](OC(=O)[C@H](O)[C@@H](NC(=O)c4ccccc4)c4ccccc4)C(C)=C1C3(C)C)[C@]1(OC(C)=O)CO[C@@H]1C[C@@H]2O , write its Ratio.
*A* 1

*Q* For CC(=O)O[C@H]1C(=O)[C@@]2(C)[C@H]([C@H](OC(=O)c3ccccc3)[C@]3(O)C[C@H](O)C(C)=C1C3(C)C)[C@]1(OC(C)=O)CO[C@@H]1C[C@@H]2O , write its Ratio.
*A* > 14

*Q* For CC(=O)O[C@H]1C(=O)[C@@]2(C)[C@H]([C@H](OC(=O)c3ccccc3)[C@]3(O)C[C@H](OC(=O)[C@H](O)[C@@H](NC(=O)c4ccc(Cl)cc4)c4ccccc4)C(C)=C1C3(C)C)[C@]1(OC(C)=O)CO[C@@H]1C[C@@H]2O , write its Ratio.
*A* 2.4

*Q* For O=C(N[C@@H](c1ccccc1)[C@@H](O)C(=O)O)c1ccccc1 (relative stereo) , write its Ratio.
*A* > 14

*Q* For CC(=O)O[C@H]1C(=O)[C@@]2(C)[C@H]([C@H](OC(=O)c3ccccc3)[C@]3(O)C[C@H](OC(=O)[C@H](O)[C@@H](NC(=O)c4ccccc4)c4ccc(Cl)cc4)C(C)=C1C3(C)C)[C@]1(OC(C)=O)CO[C@@H]1C[C@@H]2O , write its Ratio.
*A* 1.9
